Exercise: state measured kon for each of the binders provided.
test target: feline FcRn (FCN-F82W3, Acrobiosystems) (feline)
assay explanation: SPR Carterra, IgG coupled, pH 7.4
The response must be a number in M⁻¹ s⁻¹ with no trailing unit.

Ask | Give the measured kon of anti-NGF feline IgG1a, Fc variant S434Y, S426L (antibody, part only; not given: anti-NGF variable domains, light chain, not shown: another chain or arm of the molecule; small tags and cut ends) Fc: PPEMLGGPSIFIFPPKPKDTLSISRTPEVTCLVVDLGPDDSDVQITWFVDNTQVYTAKTSPREEQFNSTYRVVSVLPILHQDWLKGKEFKCKVNSKSLPSPIERTISKAKGQPHEPQVYVLPPAQEELSRNKVSVTCLIKSFHPPDIAVEWEITGQPEPENNYRTTPPQLDSDGTYFVYSKLSVDRSHWQRGNTYTCLVSHEALHYHHTQKSLTQSPGK .
Reply | 636000

Ask | Would you mind telling me what kon value was observed for anti-NGF feline IgG1a, Fc variant S252Y, Q311K (antibody, part only; not given: anti-NGF variable domains, light chain, not shown: another chain or arm of the molecule; small tags and cut ends) Fc: PPEMLGGPSIFIFPPKPKDTLYISRTPEVTCLVVDLGPDDSDVQITWFVDNTQVYTAKTSPREEQFNSTYRVVSVLPILHKDWLKGKEFKCKVNSKSLPSPIERTISKAKGQPHEPQVYVLPPAQEELSRNKVSVTCLIKSFHPPDIAVEWEITGQPEPENNYRTTPPQLDSDGTYFVYSKLSVDRSHWQRGNTYTCSVSHEALHSHHTQKSLTQSPGK ?
Reply | 2.39e+06

Ask | Dear colleague, I am looking for the recorded kon of the following binder: anti-NGF feline IgG1a, Fc variant S252Y, Q311V (antibody, part only; not given: anti-NGF variable domains, light chain, not shown: another chain or arm of the molecule; small tags and cut ends) Fc: PPEMLGGPSIFIFPPKPKDTLYISRTPEVTCLVVDLGPDDSDVQITWFVDNTQVYTAKTSPREEQFNSTYRVVSVLPILHVDWLKGKEFKCKVNSKSLPSPIERTISKAKGQPHEPQVYVLPPAQEELSRNKVSVTCLIKSFHPPDIAVEWEITGQPEPENNYRTTPPQLDSDGTYFVYSKLSVDRSHWQRGNTYTCSVSHEALHSHHTQKSLTQSPGK
Reply | 173000
